target: Melatonin receptor type 1A (Homo sapiens, UniProt P48039); assay: Agonist activity at human MT1 receptor expressed in CHO cells assessed as inhibition of forskolin-induced cAMP accumulation
Sequence (P48039 whole entry): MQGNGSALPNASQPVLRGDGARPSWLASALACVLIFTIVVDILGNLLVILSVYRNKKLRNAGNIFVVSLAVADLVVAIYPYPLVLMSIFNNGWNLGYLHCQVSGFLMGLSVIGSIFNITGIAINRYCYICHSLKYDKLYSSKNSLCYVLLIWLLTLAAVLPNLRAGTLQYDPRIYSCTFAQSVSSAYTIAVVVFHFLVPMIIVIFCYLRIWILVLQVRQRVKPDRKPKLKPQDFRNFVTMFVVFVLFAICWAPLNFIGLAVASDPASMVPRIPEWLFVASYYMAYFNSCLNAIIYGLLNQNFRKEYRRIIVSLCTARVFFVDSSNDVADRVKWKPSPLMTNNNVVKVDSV
pIC50: −log10 of the molar value.

structure.smiles	experimental.system	pIC50
CCCC(=O)NCCc1c2n(c3ccc(OC)cc13)CCN(C)C2	Melatonin receptor type 1A (Homo sapiens, UniProt P48039)	8.50

* * *

A collection of molecules and their measured Ratio Ki
organism: Homo sapiens; assay: Selectivity ratio of Ki for human MT1 receptor to Ki for human MT2 receptor

molecule	Ratio Ki
COc1ccc2c(c1)c(CCNC(C)=O)c1n2CCCN(C)C1	6
COc1ccc2[nH]c(CN(C)c3ccc(Cl)cc3)c(CCNC(C)=O)c2c1	6
COc1ccc2c(c1)CC1Cn3c(c(CCNC(C)=O)c4cc(OC)ccc43)CN21 (centres undefined)	4.4
COc1ccc2[nH]c(CN(C)c3ccccc3)c(CCNC(C)=O)c2c1	8

// data source = ChEMBL document CHEMBL1152952
